- Assay protocol: Toxicity liver stage against HepG2, at 10uM
- Assay type: cell-based
- Set-up: test concentration 10 uM, cell line HepG2-A16-CD81EGFP
- Conditions used: human, HepG2-A16-CD81EGFP cells; read-out: INHIBITION
Readout type: cytotoxicity at 10 µM (%)
Write the value in % as a bare number.

[[record]]
compound = "CCCNC(=O)C[C@@H]1CCN(C(=O)c2cccnc2)C[C@@H]1CC"
readout_value = -0.171

[[record]]
compound = "CCc1cc(C(=O)N2CCCC(c3[nH]ncc3S(C)(=O)=O)C2)no1 (stereo unspecified)"
readout_value = -0.335

[[record]]
compound = "CC(C)n1cc(N2CC(C(=O)N3CCN(C)CC3)CC2=O)cn1 (stereo unspecified)"
readout_value = 1.44

[[record]]
compound = "Cc1ncc(CNC(=O)CCOc2ccccc2)c(C2CCCN2C)n1 (stereo unspecified)"
readout_value = -1.03

[[record]]
compound = "CCN(CC)C(=O)[C@@H]1C[C@H](N)CN1C(=O)c1cc2c([nH]c1=O)CCC2"
readout_value = -1.94


Input line: Consider the compound `Cc1ccc(C(=O)Nc2nc(C)no2)cc1` and give its measured cytotoxicity at 10 µM.
Output line: -1.81

====

Examples of compounds with documented cytotoxicity at 10 µM follow.
- Assay protocol: Toxicity liver stage against HepG2, at 10uM
- Format: cell-based
- Set-up: test concentration 10 uM, cell line HepG2-A16-CD81EGFP
- Conditions used: human, HepG2-A16-CD81EGFP cells; read-out: INHIBITION
Write the value in % as a bare number.

Here is how some compounds turned out for cytotoxicity at 10 µM.
[[record]]
compound = "c1cncc(COC[C@H]2CC[C@H]3[C@H](CCN3Cc3cccs3)O2)c1"
readout_type = "cytotoxicity at 10 µM"
unit_string = "%"
readout_value = 3.45

[[record]]
compound = "Cc1cc(NC(=O)CN(C)C2CCCN(c3cccnn3)C2)on1 (stereo not drawn)"
readout_type = "cytotoxicity at 10 µM"
unit_string = "%"
readout_value = -5.93

[[record]]
compound = "COCc1ccccc1CNCc1c(C(C)C)nn(C)c1N(C)C"
readout_type = "cytotoxicity at 10 µM"
unit_string = "%"
readout_value = -7.83

[[record]]
compound = "CCC1=N[C@@]2(CC[C@@H]3CN(S(=O)(=O)CC)C[C@@H]32)C(=O)N1CCOC"
readout_type = "cytotoxicity at 10 µM"
unit_string = "%"
readout_value = -0.211

[[record]]
compound = "CC(C)NC(=O)c1nc(Cn2c(C(F)F)nc3ccccc32)no1"
readout_type = "cytotoxicity at 10 µM"
unit_string = "%"
readout_value = 9.34


Input line: Consider the compound `Cc1nsc(NC(=O)NC2(CN3CCOCC3)CCCCC2)n1` and give its measured cytotoxicity at 10 µM.
Output line: -3.82

Input line: Entry `N#Cc1nc(COc2ccc3c(c2)OCO3)oc1NC1CC1` please
Output line: -43

Input line: Entry CCS(=O)(=O)N1CCC(c2nn(CCN(C)C)c3ncccc23)C1 (stereo not drawn) please
Output line: -4.88

Input line: Entry Cc1nc(C2CCCN(C(=O)CCCn3cccn3)C2)no1 (stereo not drawn) please
Output line: -3.84

Input line: Entry `COc1ccc(C(=O)NS(=O)(=O)c2cncc(Br)c2)c(OC)c1` please
Output line: -0.402

Input line: Entry `CC(C)[C@]1(O)CN(C(=O)C2(Cn3cccn3)CC2)C[C@H]1C` please
Output line: 1.79

Input line: Entry Cc1[nH]c2c(C)ccc(C)c2c1CC(=O)NC1CCCNC1=O (stereo not drawn) please
Output line: -0.274

Input line: Entry `O=C(CCc1cc2n(n1)CCCNC2)N1CCN(C2CCCC2)C(=O)C1` please
Output line: 2.68

Input line: Entry `CNC(=O)[C@H]1C[C@@H]2CN(Cc3c(C)noc3C)C[C@@H]2N1C(C)=O` please
Output line: -108

====

Examples of compounds with documented cytotoxicity at 10 µM follow.
- Assay protocol: Toxicity liver stage against HepG2, at 10uM
- Assay type: cell-based
- Design: test concentration 10 uM, cell line HepG2-A16-CD81EGFP
- Conditions used: human, HepG2-A16-CD81EGFP cells; read-out: INHIBITION

Here is how some compounds turned out for cytotoxicity at 10 µM.
[[record]]
compound = "c1csc(-c2nnc(CSCCN3CCOCC3)o2)c1"
readout_value = "-5.77%"

[[record]]
compound = "CS(=O)(=O)NC1CCN(c2cccc(F)c2C#N)CC1"
readout_value = "-3.6%"

[[record]]
compound = "O=C1CCN(C(=O)c2ncoc2-c2ccco2)c2ncccc2N1"
readout_value = "-3.58%"

[[record]]
compound = "CC1c2ncc(COCC3CC3)n2CCN1C (configuration not stated)"
readout_value = "7.83%"

[[record]]
compound = "Cc1cc2c(=O)n(CCOCCO)cnc2s1"
readout_value = "8.72%"

[[record]]
compound = "O=C(Nc1cnccn1)[C@H]1COC[C@H]2CN(c3ncc(F)cn3)C[C@H]21"
readout_value = "-0.695%"

[[record]]
compound = "Cn1cc(CNC2CCCN(Cc3noc(C4CC4)n3)C2)cn1 (configuration not stated)"
readout_value = "-9.52%"

[[record]]
compound = "COc1ccc(S(=O)(=O)N2CCN(C)c3ncccc3C2)cc1"
readout_value = "-110%"

[[record]]
compound = "COc1coc(C(=O)Nc2ccncc2)cc1=O"
readout_value = "-14.4%"

[[record]]
compound = "CCc1noc(C2CCCCN2C(=O)c2cc(C)oc2C)n1 (configuration not stated)"
readout_value = "8.57%"


Input line: Consider the compound `COCCOCCC(=O)Nc1c(-c2ccc(F)cc2)ncn1C` and give its measured cytotoxicity at 10 µM.
Output line: -3.31%

Input line: Entry `Cc1ccc(-c2nc(CN3CCOCS3(=O)=O)c(C)o2)cc1` please
Output line: -0.724%

====

- Assay protocol: Toxicity liver stage against HepG2, at 10uM
- Format: cell-based
- Set-up: test concentration 10 uM, cell line HepG2-A16-CD81EGFP
- Conditions used: human, HepG2-A16-CD81EGFP cells; read-out: INHIBITION
Readout type: cytotoxicity at 10 µM (%)
Write the value in % as a bare number.

Here is how some molecules turned out for cytotoxicity at 10 µM.
[[record]]
molecule = "CN(CC(=O)Nc1nc2c(s1)CCC2)C(=O)c1cccs1"
unit_string = "%"
readout_value = -10.3

[[record]]
molecule = "c1cnn(C2CN(Cc3nc(-c4ccsc4)no3)C2)c1"
unit_string = "%"
readout_value = -12.2

[[record]]
molecule = "CN1CC(C(=O)N2CCC(Oc3ccccc3Cl)CC2)CC1=O (stereo unspecified)"
unit_string = "%"
readout_value = 9.99


Input line: Consider the molecule `CCOc1ccc(-c2ccnc(COc3ccccc3)n2)cc1C(=O)O` and give its measured cytotoxicity at 10 µM.
Output line: -1.84

Input line: Entry `Cc1ccccc1NC(=O)Nc1cc(N2CCCC2)ncn1` please
Output line: -7.73

Input line: Entry CN(C)C(=O)C1CN(Cc2ccsc2)CCN(S(C)(=O)=O)C1 (stereo unspecified) please
Output line: 14.4

====

- Assay protocol: Toxicity liver stage against HepG2, at 10uM
- Assay type: cell-based
- Parameters: test concentration 10 uM, cell line HepG2-A16-CD81EGFP
- Conditions used: human, HepG2-A16-CD81EGFP cells; read-out: INHIBITION
Readout type: cytotoxicity at 10 µM (%)
Write the value in % as a bare number.

Here is how some molecules turned out for cytotoxicity at 10 µM.
[[record]]
molecule = "CC(C)NC(=O)CCNC(=O)CCc1cc(Cl)cs1"
readout_type = "cytotoxicity at 10 µM"
unit_string = "%"
readout_value = -2.59

[[record]]
molecule = "CN1CC(C(=O)NC(C)(C)CNC(=O)OC(C)(C)C)CC1=O (stereo unspecified)"
readout_type = "cytotoxicity at 10 µM"
unit_string = "%"
readout_value = -3.88

[[record]]
molecule = "Cc1ccc(CN2CC[C@H]3[C@H]2CC(=O)N3c2cccnc2)o1"
readout_type = "cytotoxicity at 10 µM"
unit_string = "%"
readout_value = 5.67

[[record]]
molecule = "CCSCC(C)NCc1cc(-c2ccco2)on1 (stereo unspecified)"
readout_type = "cytotoxicity at 10 µM"
unit_string = "%"
readout_value = 1.29

[[record]]
molecule = "O=C1[C@H]2CN(Cc3cccs3)C[C@H]2CN1c1cncnc1"
readout_type = "cytotoxicity at 10 µM"
unit_string = "%"
readout_value = -13.8


Attention now shifts to the item below.
Input line: Consider the molecule COCCN(Cc1ccccn1)C(=O)CC1OCCc2ccccc21 (stereo unspecified) and give its measured cytotoxicity at 10 µM.
Output line: -42.5

====

- Assay protocol: Toxicity liver stage against HepG2, at 10uM
- Type: cell-based
- Parameters: test concentration 10 uM, cell line HepG2-A16-CD81EGFP
- Conditions used: human, HepG2-A16-CD81EGFP cells; read-out: INHIBITION
Readout type: cytotoxicity at 10 µM (%)
Write the value in % as a bare number.

[[record]]
compound = "CC(=O)N1CCC(c2cncc(N3CCC(O)C3)n2)CC1 (configuration not stated)"
unit_string = "%"
readout_value = 5.57

[[record]]
compound = "Cc1ccccc1C(CC(=O)NCc1nnc(N)s1)c1ccccc1 (configuration not stated)"
unit_string = "%"
readout_value = 13.6

[[record]]
compound = "C/C(=C\\c1ccco1)CN(C)C(C)c1ccccn1 (configuration not stated)"
unit_string = "%"
readout_value = -3.49

[[record]]
compound = "CCC(Nc1cccc(OC)c1)C(=O)NCc1ccc2c(c1)OCO2 (configuration not stated)"
unit_string = "%"
readout_value = -1.11

[[record]]
compound = "O=C(Cc1ccc(-n2cccn2)cc1)N1CCN2CCCCC2C1 (configuration not stated)"
unit_string = "%"
readout_value = 4.31


Input line: Consider the compound `CC(C)(O)c1cc(CC2(NCc3ccccc3Cl)COC2)no1` and give its measured cytotoxicity at 10 µM.
Output line: 2.63

Input line: Entry `O=C(O)c1cc(NS(=O)(=O)c2cccc(Cl)c2F)ccc1Cl` please
Output line: -4.92

Input line: Entry `CN(CCN1CCCC1=O)S(=O)(=O)CC1CCCC1` please
Output line: 10.4

Input line: Entry CN1CCN(C(=O)C2CCCN2c2ncnc3ccsc23)CC1 (configuration not stated) please
Output line: 9.19

Input line: Entry CCc1nc(C)c(CN2CCCC(c3nn(C)c(=O)n3CC)C2)[nH]1 (configuration not stated) please
Output line: -7.77

Input line: Entry `Cc1nn(C)cc1-c1ccnc(NCCN)n1` please
Output line: -0.571

Input line: Entry `CNc1snc(C)c1C(=O)N1CCC(Nc2ccc(C)nn2)CC1` please
Output line: -8.27
